System: SK-MEL-5 melanoma
Assay: NCI tumour cell line growth inhibition, 48 h
The entries below are paired with their reported TGI.

{"columns": ["molecule", "TGI"],
 "data": [
  ["O=C(C(=O)c1cc2ccccc2[nH]1)c1cc2ccccc2[nH]1", "> 347 µM"],
  ["O=C1/C(=C\\c2ccc(Cl)cc2)N=C(c2ccccc2)N1n1c(=O)cn[nH]c1=S", "55.3 µM"],
  ["O=c1oc2ccc(I)cc2c(=O)n1-c1ccc(Br)cc1F", "1.04 µM"],
  ["COc1ccc(N=c2oc3ccccc3cc2C(N)=O)cc1", "> 100 µM"],
  ["FC1(F)[Se]C2C3CCC(C3)C2C1(F)F (stereo not given)", "> 100 µM"]
]}

Name the recorded TGI for Cc1cc2c(C(=O)NC[C@H](C)c3ccccc3)c(O)c(O)cc2c(O)c1-c1c(C)cc2c(C(=O)NC[C@H](C)c3ccccc3)c(O)c(O)cc2c1O .
1.47 µM

---

Collected TGI values appear next to each entry.
Tested on: BT-549 breast
Assay: NCI tumour cell line growth inhibition, 48 h
Report the figure in µM without appending any unit label.

{"columns": ["compound", "parameter", "numeric result"],
 "data": [
  ["Nc1nc(/C=C\\c2ccc([N+](=O)[O-])s2)nc(N2CCN(c3ccccc3)CC2)n1", "TGI", 48]
]}

Please provide the recorded TGI for Cc1ccc([N+](=O)[O-])cc1S(=O)(=O)Nc1ccc(C2=NN(S(=O)(=O)c3cc([N+](=O)[O-])ccc3C)C(c3ccccc3)C2)cc1 (centres undefined) , tested on BT-549 breast.
57.2

Observed TGI on BT-549 breast for COc1cc2c(c(OC)c1OC)-c1ccc(OC)c(=O)cc1C(NC(=O)COc1ccccc1)CC2 (centres undefined) , please.
5.12

Missing value: TGI, BT-549 breast, entry COc1ccc2c(c1)C(=O)c1c-2n(CCCN(C)C)c(=O)c2ccccc12 . Fill in?
3.11

Find the measured TGI: item COc1ccc(C(=O)C#Cc2cn(C3CC(O)C(CO)O3)c(=O)[nH]c2=O)cc1 (centres undefined) , target or system BT-549 breast.
40.4

---

Test system: OVCAR-5 ovarian
Test: NCI tumour cell line growth inhibition, 48 h
Where a SMILES comes first, the peptide text is derived from it. The star is where a group is joined. Fmoc = O=C(OCC1c2ccccc2-c2ccccc21)*; OtBu = CC(C)(C)O*
Consider the following compounds and their measured TGI readings.

Solved entries:
{"columns": ["compound", "TGI"],
 "data": [
  ["CC1(C)OC2C(CCP(=O)(O)O)OC(c3nc(C(N)=O)cs3)C2O1 (centres undefined)", "> 100 µM"],
  ["O=C1C2C(C(=O)N1c1ccccc1)C1(c3ccccc3)CCC2(C(=O)c2ccccc2)O1 (centres undefined)", "> 10 µM"],
  ["CN=C1Nc2ccccc2C(=O)N2CSCC12 (centres undefined)", "> 100 µM"],
  ["CCOC1OC(COC(=O)C(C)(C)C)C(O)CC1n1cc(C)c(=O)[nH]c1=O (centres undefined)", "> 100 µM"],
  ["O=c1c2ccccc2sc2c(NCCCNCCO)nc3ccccc3c12", "3.31 µM"]
]}

What is its TGI for OVCAR-5 ovarian? Entry: COc1ccc2c(c1)C(=O)c1c-2n(CCCN(C)C)c(=O)c2ccccc12
12.7 µM

Checklist item: TGI tested on OVCAR-5 ovarian, entry CC(C)C(NC(=O)OCC1c2ccccc2-c2ccccc21)C(=O)NC(CCC(=O)OC(C)(C)C)C(=O)OC(C)(C)C (centres undefined) (Fmoc-Val-Glu(OtBu)-OtBu; configuration not given here) , value?
> 100 µM

What measured TGI is associated with CSC12c3cc(C)n(-c4ccc([N+](=O)[O-])cc4)c3CC(C)(C)CN1C(=O)C2Oc1ccccc1 (centres undefined) on OVCAR-5 ovarian?
> 100 µM

Could you share what TGI was measured for CC(=O)OCCn1cnc2c(NCC=C(C)C)ncnc21 , tested on OVCAR-5 ovarian?
> 100 µM

---

System: RPMI-8226 leukemia
Assay: NCI tumour cell line growth inhibition, 48 h; in the data active = GI50 below about 0.43 µM; inactive = the rest
Return exactly one item of true for active, false for inactive

{"columns": ["chem smiles", "tgt", "class label"],
 "data": [
  ["O=C1N[C@@H]2[C@@H](O)[C@@H](O)[C@H](O)C[C@H]2c2cc3c(c(O)c21)OCCO3", "RPMI-8226 leukemia", "true"],
  ["O=c1c2c(nc3n1CCS3)[nH]c1cc([N+](=O)[O-])ccc12", "RPMI-8226 leukemia", "false"],
  ["CNC(=O)c1c(C)oc2cc(Oc3ncnc4cc(OC)c(OC)cc34)ccc12", "RPMI-8226 leukemia", "false"],
  ["O=C(CN(/C=C/C(=O)C(F)(F)F)c1ccc(Cl)cc1)c1ccc(Cl)cc1", "RPMI-8226 leukemia", "false"]
]}

Which outcome did this test record for the molecule Cc1nn(CNc2ccccc2C(F)(F)F)c(=S)n1/N=C/c1cccc2cccnc12 ?
false

I would be grateful if you could indicate the recorded call for COc1ccc(C2(Cl)c3ccccc3N(c3ccccc3)c3ccccc32)cc1 .
true

Per the assay record, what outcome was assigned to Cc1cc2nc(NCCN)n(Cc3ccc(F)c(Cl)c3)c2cc1C ?
false

Just curious, what result did COc1ccc2c(c1)C(=O)c1c-2n(CCCN(C)C)c(=O)c2ccccc12 get here?
true

Which outcome did this test record for the molecule COc1ccc(/C=C\c2cc(OC)c(OC)c(OC)c2)cc1OCC(=O)Nc1nc2ccc(F)cc2s1 ?
false

Which outcome was entered for the molecule C[C@@H](Oc1cc(-n2cnc3ccc(OC4CCN(C)CC4)cc32)sc1C(N)=O)c1ccccc1Cl in this test?
true

---

Test system: NCI-H226 lung
Test: NCI tumour cell line growth inhibition, 48 h
The entries below come with measured TGI values attached.

See these solved cases before continuing.
{"columns": ["compound", "TGI"],
 "data": [
  ["Cc1cnc2n1S(=O)(=O)c1cc(C(=O)Nc3cccc4nsnc34)c(Cl)cc1S2", "34.2 µM"],
  ["CCOC(=O)Cc1c(C)c2cc(C(=O)c3ccccc3)c(O)cc2oc1=O", "> 100 µM"],
  ["CSc1nc(-c2ccc(Cl)cc2)c(C#N)c(=O)n1C1OC(COC(C)=O)C(OC(C)=O)C(OC(C)=O)C1OC(C)=O (centres undefined)", "> 100 µM"]
]}

Next compound, please.
For CNC(=O)OCc1nc(SC)n(C)c1CO , what is its reported TGI?
> 100 µM

---

Test system: 786-0 renal
Experiment: NCI tumour cell line growth inhibition, 48 h
parameter: TGI

Some solved cases for reference:
{"columns": ["compound", "result"],
 "data": [
  ["Cc1ccc(C)c(N2C(=O)C(=O)C(c3nc4ccccc4s3)/C(=N/N)C2=O)c1 (centres undefined)", "> 100 µM"],
  ["Cc1c2ccccc2c(C2C3C(=O)N(c4ccc(Br)cc4)C(=O)C3ON2C(C(N)=O)c2ccccc2)c2ccccc12 (centres undefined)", "33.1 µM"],
  ["CCCCc1ccc(N=C(N)N)cc1", "48.8 µM"]
]}

If you can, please state the reported TGI value of CCc1cccc(C(C)C)c1NC(=O)C(=O)C1C(=O)Nc2ccccc2S1=O (centres undefined) .
> 100 µM

Fill blank: measured TGI of the compound CC(=O)OCCn1cnc2c(NCC=C(C)C)ncnc21 is ____.
> 100 µM

---

Test system: HL-60(TB) leukemia
Assay: NCI tumour cell line growth inhibition, 48 h; in the data active = GI50 below about 0.43 µM; inactive = the rest
Output constraint: value belongs to label 1 for active, label 0 for inactive

Consider the worked cases shown below.
{"columns": ["molecule", "class label"],
 "data": [
  ["NS(=O)(=O)OC[C@H]1C[C@@H](Nc2ccnc3cc(-c4cccc(SC(F)(F)F)c4)nn23)[C@H](O)[C@@H]1O", "label 1"],
  ["CCOC(=O)c1cc(C(=O)c2ccc(OC)cc2)n2ccc(/C=C/c3cc[n+](CC(=O)c4ccc(OC)cc4)cc3)cc12", "label 0"],
  ["O=c1oc2ccc(I)cc2c(=O)n1-c1ccc(Br)cc1F", "label 0"],
  ["CC(C)(C)C(=O)OCOP(=O)(NCc1ccccc1)C1CCCN(O)C1=O (stereo not drawn)", "label 0"],
  ["Oc1c(Cl)cc(Cl)c(Cl)c1CNCCNCc1c(O)c(Cl)cc(Cl)c1Cl", "label 0"],
  ["COc1ccc(C(=O)C(CN(C)C)CN(C)C)cc1", "label 1"],
  ["CNC(=O)c1ccc(N2C(=S)N(c3cnc(C#N)c(C(F)(F)F)c3)C(=O)C23CCC3)cc1F", "label 0"]
]}

Note: attention shifts to another entry.
What classification did O=c1c2ccccc2sc2c(NCCCNCCO)nc3ccccc3c12 end up with in this test?
label 0

---

Tested on: EKVX NSCLC
Test: NCI tumour cell line growth inhibition, 48 h
parameter: TGI (µM)
Return type: number; implicit unit µM.

{"columns": ["chem smiles", "numeric result"],
 "data": [
  ["Oc1c(Cl)cc(Cl)c(Cl)c1CNCCNCc1c(O)c(Cl)cc(Cl)c1Cl", 10.2],
  ["COc1ccc2c(c1)C(=O)c1c-2n(CCCN(C)C)c(=O)c2ccccc12", 8.45]
]}

What value of TGI has been recorded for this entry: COc1ccc2ncn(-c3cc(O[C@H](C)c4ccccc4C(F)(F)F)c(C(N)=O)s3)c2c1
13.1

The measurements presented in this section are drawn from PubChem BioAssay (NCI).
